Would you mind telling me the reported Ratio of each entry?
target: Solute carrier family 15 member 1 (Homo sapiens) (UniProt P46059); test: Relative inhibition of [3H]glycylsarcosine uptake in HeLa cells expressing human Intestinal peptide transporter PepT1 compared to BDCRB; type: cell-based
Answers are plain numbers.

Here are 3 compounds together with their reported answers.
COc1ccc(C[C@H](N)C(=O)OC[C@H]2OC(n3c(Br)nc4cc(Cl)c(Cl)cc43)[C@H](O)[C@@H]2O)cc1 (some centres undefined)	1.5
CCC(C)[C@H](N)C(=O)OC[C@H]1O[C@@H](n2c(Br)nc3cc(Cl)c(Cl)cc32)[C@H](O)[C@@H]1O (some centres undefined)	3.7
N[C@H](Cc1ccccc1)C(=O)OC[C@H]1OC(n2c(Br)nc3cc(Cl)c(Cl)cc32)[C@H](O)[C@@H]1O (some centres undefined)	1.6

Lab note: next compound to report on.
Tested on Solute carrier family 15 member 1 (Homo sapiens) (UniProt P46059): CC(C)[C@@H](N)C(=O)OC[C@H]1OC(n2c(Br)nc3cc(Cl)c(Cl)cc32)[C@H](O)[C@@H]1O (some centres undefined) . Observed Ratio: 1.3

----------
Would you mind telling me the reported pIC50 of each entry?
biological target: UniProt P46059; test: Inhibitory concentration against [3H]glycylsarcosine uptake in HeLa cells expressing human Intestinal peptide transporter PepT1; assay type: cell-based
One number for each entry, as −log10 of the molar value.

Here are 3 compounds together with their reported answers.
N[C@@H](Cc1ccc(Cl)cc1)C(=O)OC[C@H]1OC(n2c(Br)nc3cc(Cl)c(Cl)cc32)[C@H](O)[C@@H]1O (stereo partly drawn)	3.85
N[C@H](CC(=O)O)C(=O)OC[C@H]1OC(n2c(Br)nc3cc(Cl)c(Cl)cc32)[C@H](O)[C@@H]1O (stereo partly drawn)	3.38
CC(C)[C@H](N)C(=O)OC[C@H]1OC(n2c(Br)nc3cc(Cl)c(Cl)cc32)[C@H](O)[C@@H]1O (stereo partly drawn)	3.78

Please state, for each entry, its recorded pIC50.
1. CCC(C)[C@H](N)C(=O)OC[C@H]1O[C@@H](n2c(Br)nc3cc(Cl)c(Cl)cc32)[C@H](O)[C@@H]1O (stereo partly drawn)
2. O=C(OC[C@H]1OC(n2c(Br)nc3cc(Cl)c(Cl)cc32)[C@H](O)[C@@H]1O)[C@@H]1CCCN1 (stereo partly drawn)

Reply:
[3.92, 3.27]

----------
Would you mind telling me the reported Ratio of each entry?
Target: Solute carrier family 15 member 1 (Homo sapiens) (UniProt P46059)
Sequence (whole entry): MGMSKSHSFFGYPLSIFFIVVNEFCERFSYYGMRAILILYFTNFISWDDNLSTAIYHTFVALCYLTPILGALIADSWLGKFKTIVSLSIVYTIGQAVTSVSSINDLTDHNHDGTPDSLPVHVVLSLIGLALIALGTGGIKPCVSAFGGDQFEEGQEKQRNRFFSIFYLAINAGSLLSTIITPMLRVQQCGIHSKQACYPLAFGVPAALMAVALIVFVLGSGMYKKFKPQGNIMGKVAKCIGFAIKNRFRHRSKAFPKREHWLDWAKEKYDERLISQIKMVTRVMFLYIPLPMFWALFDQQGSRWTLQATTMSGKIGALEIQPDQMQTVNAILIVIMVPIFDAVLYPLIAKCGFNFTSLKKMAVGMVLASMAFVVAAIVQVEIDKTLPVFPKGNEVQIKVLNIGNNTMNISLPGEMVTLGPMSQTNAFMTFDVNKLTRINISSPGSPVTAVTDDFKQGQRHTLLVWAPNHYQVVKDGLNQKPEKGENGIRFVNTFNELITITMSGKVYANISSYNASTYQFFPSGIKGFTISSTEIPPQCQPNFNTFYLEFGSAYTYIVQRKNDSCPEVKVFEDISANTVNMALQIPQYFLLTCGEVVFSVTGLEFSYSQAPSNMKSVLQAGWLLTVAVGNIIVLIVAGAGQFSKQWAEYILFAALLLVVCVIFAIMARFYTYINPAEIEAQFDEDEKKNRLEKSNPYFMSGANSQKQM
Assay: Relative inhibition of [3H]glycylsarcosine uptake in HeLa cells expressing human Intestinal peptide transporter PepT1 compared to BDCRB
Type: cell-based
Give bare numbers.

CCOc1ccc(C[C@H](N)C(=O)OC[C@H]2OC(n3c(Br)nc4cc(Cl)c(Cl)cc43)[C@H](O)[C@@H]2O)cc1 (stereo partly drawn)	4.7

Please state, for each entry, its recorded Ratio.
1. N[C@@H](Cc1ccc(Cl)cc1)C(=O)OC[C@H]1OC(n2c(Br)nc3cc(Cl)c(Cl)cc32)[C@H](O)[C@@H]1O (stereo partly drawn)
2. N[C@H](CC(=O)O)C(=O)OC[C@H]1OC(n2c(Br)nc3cc(Cl)c(Cl)cc32)[C@H](O)[C@@H]1O (stereo partly drawn)
3. N[C@@H](CC(=O)O)C(=O)OC[C@H]1OC(n2c(Br)nc3cc(Cl)c(Cl)cc32)[C@H](O)[C@@H]1O (stereo partly drawn)

Reply:
1. 3.1
2. 1.1
3. 1.7

Please state, for each entry, its recorded Ratio.
1. N[C@@H](Cc1ccccc1)C(=O)OC[C@H]1OC(n2c(Br)nc3cc(Cl)c(Cl)cc32)[C@H](O)[C@@H]1O (stereo partly drawn)
2. O=C(OC[C@H]1OC(n2c(Br)nc3cc(Cl)c(Cl)cc32)[C@H](O)[C@@H]1O)[C@@H]1CCCN1 (stereo partly drawn)
3. CC(C)[C@H](N)C(=O)OC[C@H]1OC(n2c(Br)nc3cc(Cl)c(Cl)cc32)[C@H](O)[C@@H]1O (stereo partly drawn)
4. NCCCC[C@H](N)C(=O)OC[C@H]1OC(n2c(Br)nc3cc(Cl)c(Cl)cc32)[C@H](O)[C@@H]1O (stereo partly drawn)

Reply:
[2.1, 0.8, 2.7, 0.9]

----------
biological target: Solute carrier family 15 member 1 (Homo sapiens, UniProt P46059); assay: Inhibitory concentration against [3H]glycylsarcosine uptake in HeLa cells expressing human Intestinal peptide transporter PepT1
readoutLabel: IC50 (µM)
Numbers only, in µM.

Here are 2 compounds together with their reported answers.
N[C@@H](CC(=O)O)C(=O)OC[C@H]1OC(n2c(Br)nc3cc(Cl)c(Cl)cc32)[C@H](O)[C@@H]1O (stereo partly drawn)	260
OC[C@H]1O[C@H](n2c(Br)nc3cc(Cl)c(Cl)cc32)[C@@H](O)[C@H]1O	447

Tested on Solute carrier family 15 member 1 (Homo sapiens, UniProt P46059): NCCCC[C@H](N)C(=O)OC[C@H]1OC(n2c(Br)nc3cc(Cl)c(Cl)cc32)[C@H](O)[C@@H]1O (stereo partly drawn) . Observed IC50: 477

Values from ChEMBL document CHEMBL1142674
